Assay target: UniProt:P31639
Sequence (P31639 whole entry): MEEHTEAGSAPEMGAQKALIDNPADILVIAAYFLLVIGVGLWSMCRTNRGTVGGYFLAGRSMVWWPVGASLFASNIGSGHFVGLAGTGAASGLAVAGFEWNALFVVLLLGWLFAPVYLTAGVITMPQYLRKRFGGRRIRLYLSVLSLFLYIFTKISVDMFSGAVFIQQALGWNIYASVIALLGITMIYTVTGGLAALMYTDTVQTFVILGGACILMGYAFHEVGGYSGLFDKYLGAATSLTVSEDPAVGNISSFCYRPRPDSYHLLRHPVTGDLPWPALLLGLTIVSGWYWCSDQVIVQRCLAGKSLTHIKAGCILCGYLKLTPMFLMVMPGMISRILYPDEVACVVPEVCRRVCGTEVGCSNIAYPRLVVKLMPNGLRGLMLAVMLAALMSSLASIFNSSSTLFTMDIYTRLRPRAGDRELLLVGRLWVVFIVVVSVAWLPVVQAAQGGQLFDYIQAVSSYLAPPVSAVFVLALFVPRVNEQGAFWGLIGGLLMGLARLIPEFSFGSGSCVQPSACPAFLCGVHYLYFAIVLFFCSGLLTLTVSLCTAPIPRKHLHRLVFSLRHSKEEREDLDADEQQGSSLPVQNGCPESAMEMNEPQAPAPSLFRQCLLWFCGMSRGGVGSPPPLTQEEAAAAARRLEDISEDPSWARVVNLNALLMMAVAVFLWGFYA
Procedure text: Inhibitory effects on human SGLT2 activities (14C-AMG uptake, sodium-dependent glucose transport assay)
Stated conditions: hSGLT2-expressing CHO cells, 37° C. for 2 h, single determinations
Listing of recorded pIC50 by entry.
// pIC50 here means minus log10 of the molar concentration (mol/L)

- Compound: "OC[C@H]1O[C@@H](c2cc(Cc3ccc(C4CC4)cc3)c(Cl)c3c2OCCC3)[C@H](O)[C@@H](O)[C@@H]1O [Compound E018]"
  pIC50: 9.07
- Compound: "Cc1ccc(Cc2cc([C@@H]3O[C@H](CO)[C@@H](O)[C@H](O)[C@H]3O)c3c(c2Cl)OCCO3)cc1 [Compound E042]"
  pIC50: 9.00
- Compound: "CCc1ccc(Cc2cc([C@@H]3O[C@H](CO)[C@@H](O)[C@H](O)[C@H]3O)c3c(c2Cl)CC(C)S3)cc1 (stereo partly shown) [Compound E019]"
  pIC50: 9.01
- Compound: "OC[C@H]1O[C@@H](c2cc(Cc3cc4ccccc4s3)c(Cl)c3c2CCO3)[C@H](O)[C@@H](O)[C@@H]1O [Compound E055]"
  pIC50: 8.85
- Compound: "COc1ccc(Cc2cc([C@@H]3O[C@H](SC)[C@@H](O)[C@H](O)[C@H]3O)c3c(c2Cl)CCC3)cc1 [Compound E048]"
  pIC50: 9.30

GET /value?item= CCOc1ccc(Cc2cc([C@@H]3O[C@H](SC)[C@@H](O)[C@H](O)[C@H]3O)c3c(c2Cl)CC(C)O3)cc1 (stereo partly shown) [Compound E020] &field=pIC50 returns 9.16

GET /value?item= COc1ccc(Cc2cc([C@@H]3O[C@H](SC)[C@@H](O)[C@H](O)[C@H]3O)c3c(c2Cl)CCCO3)cc1 [Compound E029] &field=pIC50 returns 9.33
